Reported kon is given for each of the following binders.
Molecular target: T1, mature recombinant human GDF-15 with an N-terminal Flag and His tag, biotinylated (human, UniProt Q99988 197-308, chemically biotinylated with EZ link Sulfo-NHS-LC-Biotin, sites not stated)
T1 construct: not shown: N-terminal Flag and His tags
T1 sequence: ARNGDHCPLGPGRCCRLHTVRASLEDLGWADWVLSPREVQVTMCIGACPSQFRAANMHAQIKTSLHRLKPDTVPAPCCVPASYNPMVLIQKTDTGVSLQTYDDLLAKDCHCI
Assay: SPR Biacore 8K, 25 C, biotinylated GDF-15 on streptavidin C1 chip, Fab as analyte
Description: The experiments were carried out using mature recombinant human GDF-15, human GDF-15 H202D variant, mouse GDF-15, and cynomolgus GDF-15 with an N-terminal Flag and His tag. All species were chemically biotinylated using EZ link Sulfo-NHS-LC-Biotin (Thermo). […] Multiple buffer-only injections were made under the same conditions to allow for double reference subtraction of the final sensorgram sets, which were analyzed using Biacore 8K Evaluation Software. […]
Only the number, expressed in M⁻¹ s⁻¹, is required.

BINDER	QUANTITY_UNIT	kon
AB1170245 Fab (Fab, V domains shown, Fab of the humanized antibody, expressed as in Spooner et al. 2015) VH: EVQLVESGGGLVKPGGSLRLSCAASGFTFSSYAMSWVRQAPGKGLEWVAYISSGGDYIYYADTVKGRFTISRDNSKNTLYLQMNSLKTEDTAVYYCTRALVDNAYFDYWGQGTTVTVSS VL: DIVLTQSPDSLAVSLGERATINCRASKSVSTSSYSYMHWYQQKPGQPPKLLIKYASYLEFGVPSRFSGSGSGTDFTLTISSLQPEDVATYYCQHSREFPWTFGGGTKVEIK	M⁻¹ s⁻¹	3.1e+06
AB1170244 Fab (Fab, V domains shown, Fab of the humanized antibody, expressed as in Spooner et al. 2015) VH: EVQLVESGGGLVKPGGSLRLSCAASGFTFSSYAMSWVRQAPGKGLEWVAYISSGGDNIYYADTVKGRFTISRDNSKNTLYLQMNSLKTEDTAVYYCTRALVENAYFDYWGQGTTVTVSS VL: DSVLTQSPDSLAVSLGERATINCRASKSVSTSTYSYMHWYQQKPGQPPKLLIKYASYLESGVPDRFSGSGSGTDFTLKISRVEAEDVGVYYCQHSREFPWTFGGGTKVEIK	M⁻¹ s⁻¹	2.39e+06

Let us examine a further case.
**Query** Query (binder): AB1170247 Fab (Fab, V domains shown, Fab of the humanized antibody, expressed as in Spooner et al. 2015) VH: QVQLVQSGSELKKPGASVKVSCKASGYTFTSYDINWVRQAPGQGLEWIGWIYPRDGISKYNEKFKGRATLTVDTSASTAYMELSSLRSEDTAVYYCAGTYDPAYFDYWGQGTTVTVSS VL: EIVLTQSPATLSVSPGERATLSCRASQSISYYLHWYQQKPGQAPRLLIKYASQSISGVPDRFSGSGSGTDFTLKISRVEAEDFGVYYCQQSNSWPYTFGGGTKVEIK ; field requested: kon
**Result** 4.18e+06
